meta.source: ChEMBL document CHEMBL4295262

RUN_DESCRIPTION: Electrical activity assay on cell lines treated with a given drug. DMSO was used as a vehicle and a control, unblinded dofetilide was used as a control.
Type: ADME, cell-based
Parameters: unit not given here
REPORTED_CONDITIONS: human, ipsc-cm, 0.01 µM; concentration (um) 0.01 uM
Form field: FPDc (one value per entry).
Give the value as a plain number.

Consider the worked cases shown below.
{"COMPOUND": "CCCCCCCN(CC)CCCC(O)c1ccc(NS(C)(=O)=O)cc1 (stereo unspecified) [IBUTILIDE]", "FPDc": 0.0289}
{"COMPOUND": "CC(C)COCC(CN(Cc1ccccc1)c1ccccc1)N1CCCC1 (stereo unspecified)", "FPDc": 0.04073}
{"COMPOUND": "COc1ccc(CCN(C)CCCC(C#N)(c2ccc(OC)c(OC)c2)C(C)C)cc1OC (stereo unspecified)", "FPDc": 0.03865}
{"COMPOUND": "CN1CCN(CCCCN2C(=O)CN(/N=C/c3ccc(-c4ccc(Cl)cc4)o3)C2=O)CC1 [AZIMILIDE]", "FPDc": 0.03892}

Now for another entry.
Returns the measured FPDc for the input compound. Input: COc1ccc([C@@H]2Sc3ccccc3N(CCN(C)C)C(=O)[C@@H]2OC(C)=O)cc1
0.0252
